The reported measurements were obtained from ChEMBL document CHEMBL4038296.

Listed here are compounds together with their documented pIC50.
# subject_of_test: Tyrosine-protein phosphatase non-receptor type 2 (Homo sapiens, UniProt P17706)
# Sequence (P17706 whole entry, the tested form may be a part): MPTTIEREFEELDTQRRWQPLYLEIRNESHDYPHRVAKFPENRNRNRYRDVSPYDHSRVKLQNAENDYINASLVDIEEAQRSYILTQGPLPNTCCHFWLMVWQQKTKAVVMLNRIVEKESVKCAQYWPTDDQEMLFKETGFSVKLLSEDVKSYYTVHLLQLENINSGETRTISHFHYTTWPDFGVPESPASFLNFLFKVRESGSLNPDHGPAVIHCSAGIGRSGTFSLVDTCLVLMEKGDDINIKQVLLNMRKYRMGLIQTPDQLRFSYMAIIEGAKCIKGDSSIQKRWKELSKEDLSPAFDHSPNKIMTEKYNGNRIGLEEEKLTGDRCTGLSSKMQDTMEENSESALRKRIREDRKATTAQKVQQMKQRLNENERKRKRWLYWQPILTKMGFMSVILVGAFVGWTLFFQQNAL
# experimental_protocol: Inhibition of human recombinant TCPTP (1 to 317 residues) expressed in Escherichia coli using pNPP as substrate preincubated for 10 mins followed by substrate addition measured after 30 mins
pIC50: −log10 of the molar value.
endpoint: pIC50

structure_smiles_string=C/C(=C\Cn1c[n+](C)c2ncnc(N)c21)CC[C@]1(C)[C@@H](C)CC[C@@]2(C)C(COC(=O)c3ccc[nH]3)=CCC[C@@H]12 recorded_result="< 4.72"
structure_smiles_string=C/C(=C\C[n+]1cn(C)c2ncnc(N)c21)CC[C@]1(C)[C@@H](C)CC[C@@]2(C)C(COC(=O)c3cc(Br)c[nH]3)=CCC[C@@H]12 recorded_result="< 4.80"
